test system: MDA-N; experiment: NCI tumour cell line growth inhibition, 48 h
Assignment: determine reported TGI for the given molecules.

Return reported TGI; argument: Cn1c2c(c3ccccc31)CCN=C2C1CCCOC1=O (stereo not given)
> 100 µM

Return reported TGI; argument: Cc1cc(C)c2c(n1)S(=O)(=O)N(CCCN1CCN(c3cccc(Cl)c3)CC1)/C(=C(\O)c1ccccc1)C2=O
> 100 µM

Return reported TGI; argument: Cc1ccc(/C=C2/N=C(N/N=C\C(O)C(O)C(O)CO)NC2=O)cc1 (stereo not given)
> 100 µM

Return reported TGI; argument: COc1ccc2c(c1)CC1COc3cc(OC)ccc3C1O2 (stereo not given)
> 100 µM

Return reported TGI; argument: CCN(CC)Cc1ccccc1CC(=O)N1c2ccccc2C(=O)Nc2cccnc21
> 100 µM

Return reported TGI; argument: CCc1c2cc(OC)c(OC)cc2cc2c3cc(OC)c(OC)cc3cc[n+]12 (tested in a mixture with another compound)
> 36.5 µM

Return reported TGI; argument: COc1cc2oc(=O)cc(C)c2c(OC)c1O
> 100 µM

Return reported TGI; argument: CC(C)c1ccc(C2NC(=S)NC3=C2c2ccccc2C3=O)cc1 (stereo not given)
20.6 µM

Return reported TGI; argument: C[C@]12Cc3cnc(-c4ccccc4)nc3C[C@@H]1CC[C@@H]1[C@@H]2CC[C@@]2(C)[C@H]1CC[C@]2(C)O
48.9 µM

Return reported TGI; argument: CC(C)=NNc1snnc1C(N)=O
> 100 µM
